study-system: Transient receptor potential cation channel subfamily V member 1 (Homo sapiens, UniProt Q8NER1)
Sequence (Q8NER1 whole entry): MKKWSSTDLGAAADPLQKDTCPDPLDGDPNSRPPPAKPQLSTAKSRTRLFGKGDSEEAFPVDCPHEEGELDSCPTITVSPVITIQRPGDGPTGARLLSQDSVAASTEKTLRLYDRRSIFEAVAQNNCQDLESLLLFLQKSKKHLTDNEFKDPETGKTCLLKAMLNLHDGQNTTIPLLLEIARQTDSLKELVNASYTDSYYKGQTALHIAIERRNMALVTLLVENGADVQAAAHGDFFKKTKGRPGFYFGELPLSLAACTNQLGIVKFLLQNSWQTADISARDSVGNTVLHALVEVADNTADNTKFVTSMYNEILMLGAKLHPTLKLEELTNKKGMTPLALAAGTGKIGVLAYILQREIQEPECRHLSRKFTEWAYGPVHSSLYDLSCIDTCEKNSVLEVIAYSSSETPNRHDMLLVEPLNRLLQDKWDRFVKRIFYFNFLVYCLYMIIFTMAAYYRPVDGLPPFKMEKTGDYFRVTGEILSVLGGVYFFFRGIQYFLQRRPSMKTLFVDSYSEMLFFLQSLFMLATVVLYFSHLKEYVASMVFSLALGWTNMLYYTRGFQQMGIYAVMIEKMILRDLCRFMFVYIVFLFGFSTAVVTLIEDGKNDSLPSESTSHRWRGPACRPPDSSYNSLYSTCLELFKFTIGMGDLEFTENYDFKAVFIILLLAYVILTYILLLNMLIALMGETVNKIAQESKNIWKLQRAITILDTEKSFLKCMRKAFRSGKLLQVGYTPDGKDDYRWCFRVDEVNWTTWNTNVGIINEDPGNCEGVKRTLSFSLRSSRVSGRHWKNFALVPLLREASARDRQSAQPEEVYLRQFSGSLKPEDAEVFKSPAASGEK
protocol-summary: Antagonist activity at recombinant human TRPV1 expressed in HEK293 cells assessed as inhibition of capsaicin-induced Ca2+ influx preincubated for 5 mins followed by capsaicin challenge
property-name: IC50 (nM)

Below, 2 molecules whose answers are already recorded.
CC(C)(O)c1ccccc1-c1ccc2[nH]c(/C=C/c3ccc(OC(F)(F)F)cc3)nc2c1 = 5.9
CC(=O)c1ccccc1-c1ccc2[nH]c(/C=C/c3ccc(C(C)(C)C)cc3)nc2c1 = 25

a: CC(C)(O)c1ccccc1-c1ccc2[nH]c(CCc3ccc(C(F)(F)F)cc3)nc2c1
b: CC(C)(O)c1ccccc1-c1ccc2[nH]c(/C=C/c3cccc(C(F)(F)F)c3)nc2c1
Which record shows the lower IC50: the first, a , or the second, b ? Your answer should be the label attached to the chosen record.
a
(a: 2.8 nM, b: 4.9 nM)
